inhibition at 72 h, 0.1 ug/ml reference
assay: Growth inhibition of human LO2 cells at 0.1 ug/ml after 72 hrs by MTT assay relative to control; assay type: cell-based, L02; details: read-out: GI
Form entry: value (%) — number only.

Example results:
INSERT INTO measurements (smiles_string, measurement_name, endpoint_value) VALUES
  ('CC[C@]1(O)C[C@H]2CN(CCc3c([nH]c4ccccc34)[C@@](C(=O)OC)(c3cc4c(cc3OC)N(C=O)[C@H]3[C@@](O)(C(=O)OC)[C@H](OC(C)=O)[C@]5(CC)C=CCN6CC[C@]43[C@@H]65)C2)C1', 'inhibition at 72 h, 0.1 ug/ml', 1.39),
  ('CC(C)[C@@H]1CC[C@@H](C)C[C@H]1O[C@H]1OC(=O)C(Br)=C1N1CCN(C(=S)SCc2ccccc2)CC1', 'inhibition at 72 h, 0.1 ug/ml', 7.48),
  ('Nc1ccn([C@@H]2O[C@H](CO)[C@@H](O)[C@@H]2O)c(=O)n1', 'inhibition at 72 h, 0.1 ug/ml', 3.02),
  ('COC(=O)CSC(=S)N1CCN(C2=C(Br)C(=O)O[C@@H]2O[C@@H]2C[C@H](C)CC[C@H]2C(C)C)CC1', 'inhibition at 72 h, 0.1 ug/ml', 6.98);

Let us move to another entry and its inhibition at 72 h, 0.1 ug/ml.
Briefly, inhibition at 72 h, 0.1 ug/ml measured for "C=CCSC(=S)N1CCN(C2=C(Br)C(=O)O[C@@H]2O[C@@H]2C[C@H](C)CC[C@H]2C(C)C)CC1" : 5.21

---

experiment: Growth inhibition of human LO2 cells at 5 ug/ml after 72 hrs by MTT assay relative to control; type: cell-based, L02; conditions: read-out: GI
# cutoff 20% applies to inhibition at 72 h, 5 ug/ml; >= gives class 1, < gives class 0

INSERT INTO assay_data (smiles_string, group_label) VALUES
  ('C=CCSC(=S)N1CCN(C2=C(Br)C(=O)O[C@@H]2O[C@@H]2C[C@H](C)CC[C@H]2C(C)C)CC1', 'class 0'),
  ('COC(=O)CSC(=S)N1CCN(C2=C(Br)C(=O)O[C@@H]2O[C@@H]2C[C@H](C)CC[C@H]2C(C)C)CC1', 'class 1'),
  ('Nc1ccn([C@@H]2O[C@H](CO)[C@@H](O)[C@@H]2O)c(=O)n1', 'class 1');

Ask: Test whether the molecule "CC(C)[C@@H]1CC[C@@H](C)C[C@H]1O[C@H]1OC(=O)C(Br)=C1N1CCN(C(=S)SCc2ccccc2)CC1" records inhibition at 72 h, 5 ug/ml of 20% or higher.
Reply: class 1

Ask: Could you verify whether the entry "CC[C@]1(O)C[C@H]2CN(CCc3c([nH]c4ccccc34)[C@@](C(=O)OC)(c3cc4c(cc3OC)N(C=O)[C@H]3[C@@](O)(C(=O)OC)[C@H](OC(C)=O)[C@]5(CC)C=CCN6CC[C@]43[C@@H]65)C2)C1" shows inhibition at 72 h, 5 ug/ml of no less than 20%?
Reply: class 0

---

test system: SMMC-7721; assay: Growth inhibition of human SMMC7721 cells at 0.1 ug/ml after 72 hrs by MTT assay relative to control; assay type: functional; settings: SMMC-7721, 72 h, read-out: GI
Each entry below carries its reported inhibition of growth at 0.1 µg/mL.
The response must be a number in % with no trailing unit.

Some solved cases for reference:
INSERT INTO results (smiles_string, endpoint_value) VALUES
  ('CC[C@]1(O)C[C@H]2CN(CCc3c([nH]c4ccccc34)[C@@](C(=O)OC)(c3cc4c(cc3OC)N(C=O)[C@H]3[C@@](O)(C(=O)OC)[C@H](OC(C)=O)[C@]5(CC)C=CCN6CC[C@]43[C@@H]65)C2)C1', 17.7),
  ('Nc1ccn([C@@H]2O[C@H](CO)[C@@H](O)[C@@H]2O)c(=O)n1', 16.1),
  ('C=CCSC(=S)N1CCN(C2=C(Br)C(=O)O[C@@H]2O[C@@H]2C[C@H](C)CC[C@H]2C(C)C)CC1', 17),
  ('CC(C)[C@@H]1CC[C@@H](C)C[C@H]1O[C@H]1OC(=O)C(Br)=C1N1CCN(C(=S)SCc2ccccc2)CC1', 17);

Now take the following compound into account.
Entry under test: "COC(=O)CSC(=S)N1CCN(C2=C(Br)C(=O)O[C@@H]2O[C@@H]2C[C@H](C)CC[C@H]2C(C)C)CC1" . Its inhibition of growth at 0.1 µg/mL was 9.68

---

system: HeLa; assay: Cytotoxicity against human HeLa cells assessed as inhibition of cell proliferation after 72 hrs by MTT assay; assay type: functional, cell-based
MEASUREMENT_NAME: pIC50
In textbook form, pIC50 equals minus log to base ten of the concentration in mol/L.

INSERT INTO measurements (smiles_string, measurement_name, endpoint_value) VALUES
  ('C=CCSC(=S)N1CCN(C2=C(Br)C(=O)O[C@@H]2O[C@@H]2C[C@H](C)CC[C@H]2C(C)C)CC1', 'pIC50', 7.22);

Short answer for "COC(=O)CSC(=S)N1CCN(C2=C(Br)C(=O)O[C@@H]2O[C@@H]2C[C@H](C)CC[C@H]2C(C)C)CC1" : pIC50 was 6.49

The molecule listed as "CC(C)[C@@H]1CC[C@@H](C)C[C@H]1O[C@H]1OC(=O)C(Br)=C1N1CCN(C(=S)SCc2ccccc2)CC1" shows pIC50 equal to 6.59

---

Property: inhibition of growth at 0.5 µg/mL; scope: individual compounds
test system: SMMC-7721; assay: Growth inhibition of human SMMC7721 cells at 0.5 ug/ml after 72 hrs by MTT assay relative to control; assay type: functional; conditions: SMMC-7721, 72 h, read-out: GI
A number alone suffices; assume %.

INSERT INTO results (smiles_string, system_name, measurement_name, scale_unit, endpoint_value) VALUES
  ('CC[C@]1(O)C[C@H]2CN(CCc3c([nH]c4ccccc34)[C@@](C(=O)OC)(c3cc4c(cc3OC)N(C=O)[C@H]3[C@@](O)(C(=O)OC)[C@H](OC(C)=O)[C@]5(CC)C=CCN6CC[C@]43[C@@H]65)C2)C1', 'SMMC-7721', 'inhibition of growth at 0.5 µg/mL', '%', 23.9),
  ('C=CCSC(=S)N1CCN(C2=C(Br)C(=O)O[C@@H]2O[C@@H]2C[C@H](C)CC[C@H]2C(C)C)CC1', 'SMMC-7721', 'inhibition of growth at 0.5 µg/mL', '%', 21),
  ('COC(=O)CSC(=S)N1CCN(C2=C(Br)C(=O)O[C@@H]2O[C@@H]2C[C@H](C)CC[C@H]2C(C)C)CC1', 'SMMC-7721', 'inhibition of growth at 0.5 µg/mL', '%', 21.4),
  ('CC(C)[C@@H]1CC[C@@H](C)C[C@H]1O[C@H]1OC(=O)C(Br)=C1N1CCN(C(=S)SCc2ccccc2)CC1', 'SMMC-7721', 'inhibition of growth at 0.5 µg/mL', '%', 20.9);

Proceed to the following item.
Looking up "Nc1ccn([C@@H]2O[C@H](CO)[C@@H](O)[C@@H]2O)c(=O)n1" , I found its inhibition of growth at 0.5 µg/mL recorded as 24

---

assay: Growth inhibition of human LO2 cells at 0.5 ug/ml after 72 hrs by MTT assay relative to control; format: cell-based, L02; conditions: read-out: GI
Quick rule: inhibition at 72 h, 0.5 ug/ml of at least 10% means t, below that means f.

Example cases with answers are listed next.
INSERT INTO assay_data (smiles_string, group_label) VALUES
  ('CC[C@]1(O)C[C@H]2CN(CCc3c([nH]c4ccccc34)[C@@](C(=O)OC)(c3cc4c(cc3OC)N(C=O)[C@H]3[C@@](O)(C(=O)OC)[C@H](OC(C)=O)[C@]5(CC)C=CCN6CC[C@]43[C@@H]65)C2)C1', 'f'),
  ('Nc1ccn([C@@H]2O[C@H](CO)[C@@H](O)[C@@H]2O)c(=O)n1', 't'),
  ('COC(=O)CSC(=S)N1CCN(C2=C(Br)C(=O)O[C@@H]2O[C@@H]2C[C@H](C)CC[C@H]2C(C)C)CC1', 't');

Ask: Textbook exercise: given the entry "CC(C)[C@@H]1CC[C@@H](C)C[C@H]1O[C@H]1OC(=O)C(Br)=C1N1CCN(C(=S)SCc2ccccc2)CC1" , state whether its inhibition at 72 h, 0.5 ug/ml is greater than or equal to 10%.
Reply: t

---

assay: Growth inhibition of human LO2 cells at 0.01 ug/ml after 72 hrs by MTT assay relative to control; format: cell-based, L02; conditions: read-out: GI
Some compounds, each annotated with its measured inhibition at 72 h, 0.01 ug/ml.
Express it in %; write the number only.

Previously resolved entries follow.
INSERT INTO results (smiles_string, measurement_name, scale_unit, endpoint_value) VALUES
  ('CC(C)[C@@H]1CC[C@@H](C)C[C@H]1O[C@H]1OC(=O)C(Br)=C1N1CCN(C(=S)SCc2ccccc2)CC1', 'inhibition at 72 h, 0.01 ug/ml', '%', -3.31),
  ('Nc1ccn([C@@H]2O[C@H](CO)[C@@H](O)[C@@H]2O)c(=O)n1', 'inhibition at 72 h, 0.01 ug/ml', '%', -1.76),
  ('CC[C@]1(O)C[C@H]2CN(CCc3c([nH]c4ccccc34)[C@@](C(=O)OC)(c3cc4c(cc3OC)N(C=O)[C@H]3[C@@](O)(C(=O)OC)[C@H](OC(C)=O)[C@]5(CC)C=CCN6CC[C@]43[C@@H]65)C2)C1', 'inhibition at 72 h, 0.01 ug/ml', '%', 1.6),
  ('COC(=O)CSC(=S)N1CCN(C2=C(Br)C(=O)O[C@@H]2O[C@@H]2C[C@H](C)CC[C@H]2C(C)C)CC1', 'inhibition at 72 h, 0.01 ug/ml', '%', 0.87);

Could you now consider this next compound?
Entry under test: "C=CCSC(=S)N1CCN(C2=C(Br)C(=O)O[C@@H]2O[C@@H]2C[C@H](C)CC[C@H]2C(C)C)CC1" . Its inhibition at 72 h, 0.01 ug/ml was -1.9

Where these numbers come from: ChEMBL document CHEMBL4152291
